# target-or-system: T1, EsCas13d, nuclease-dead (Eubacterium siraeum, UniProt B0MS50, R295A;H300A;R849A;H854A)
# T1 sequence: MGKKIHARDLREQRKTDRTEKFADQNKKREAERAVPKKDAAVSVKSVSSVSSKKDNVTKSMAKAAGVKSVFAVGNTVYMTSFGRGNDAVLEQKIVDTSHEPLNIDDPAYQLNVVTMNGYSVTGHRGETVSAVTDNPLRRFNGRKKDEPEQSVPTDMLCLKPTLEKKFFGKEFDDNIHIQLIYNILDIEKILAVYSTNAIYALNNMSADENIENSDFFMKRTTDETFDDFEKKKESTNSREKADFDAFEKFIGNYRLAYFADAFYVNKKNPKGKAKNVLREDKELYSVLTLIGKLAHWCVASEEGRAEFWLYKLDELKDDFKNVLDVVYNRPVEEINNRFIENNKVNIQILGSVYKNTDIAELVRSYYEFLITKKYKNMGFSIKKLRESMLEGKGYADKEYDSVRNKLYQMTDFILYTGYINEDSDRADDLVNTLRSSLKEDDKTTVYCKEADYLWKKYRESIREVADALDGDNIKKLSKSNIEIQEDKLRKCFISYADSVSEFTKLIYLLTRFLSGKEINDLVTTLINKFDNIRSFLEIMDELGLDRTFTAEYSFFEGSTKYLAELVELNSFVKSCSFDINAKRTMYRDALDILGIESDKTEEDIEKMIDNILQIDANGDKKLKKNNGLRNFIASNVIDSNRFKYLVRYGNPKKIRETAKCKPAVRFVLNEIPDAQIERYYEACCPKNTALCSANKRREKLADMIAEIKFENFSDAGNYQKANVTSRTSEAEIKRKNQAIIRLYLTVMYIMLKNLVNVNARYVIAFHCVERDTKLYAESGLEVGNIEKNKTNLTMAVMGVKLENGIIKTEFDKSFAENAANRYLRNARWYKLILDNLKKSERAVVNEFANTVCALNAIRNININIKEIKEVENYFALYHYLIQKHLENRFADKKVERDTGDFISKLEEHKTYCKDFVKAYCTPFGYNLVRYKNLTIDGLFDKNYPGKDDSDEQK
# assay: crRNA (strand 1, pre-loaded); Mg2+; 40 mM Tris-HCl pH 7.5, 150 mM NaCl, 6 mM MgCl2, 1 mM DTT, 0.1% Tween-20, 0.2 mg/ml BSA; 25 C; 10 min per concentration, then washed
# measurement-conditions: tags: His6-TwinStrep-SUMO cleaved; N-terminal SNAP kept (SNAP-Surface 488); label: 3' end held by stalled T7 RNA polymerase
pKd: −log10 of the molar value.
recorded-metric: pKd

# binder, observed-value
data = [
    ("target 2 MT 5'PFS GAU 3'PFS CGA (mixed) RNA 1: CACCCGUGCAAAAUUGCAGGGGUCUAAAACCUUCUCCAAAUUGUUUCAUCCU RNA 2: GGGAAUGGAUCCACAUCUACGAAUUCGAUAGGAUGAAACAAUUUGGAGAAGCGAAGAUCGGAAGAGCACACGU", 7.96),
    ("target 2 MT 5'PFS ACA 3'PFS UGU (mixed) RNA 1: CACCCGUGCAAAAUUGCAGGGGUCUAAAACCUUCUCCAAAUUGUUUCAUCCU RNA 2: GGGAAUGGAUCCACAUCUACGAAUUCACAAGGAUGAAACAAUUUGGAGAAGUGUAGAUCGGAAGAGCACACGU", 8.02),
    ("target 1 del11,del14 (mixed) RNA 1: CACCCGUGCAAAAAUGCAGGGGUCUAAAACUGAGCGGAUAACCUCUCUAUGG RNA 2: GGGAAUGGAUCCACAUCUACGAAUUCGUACCAUAGAGGGUAUCCGCUCACCGAGAUCGGAAGAGCACACGU", 7.49),
    ("target 1 insC 3' of 12,insU 3' of 2 (mixed) RNA 1: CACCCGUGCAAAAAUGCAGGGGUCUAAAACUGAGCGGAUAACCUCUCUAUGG RNA 2: GGGAAUGGAUCCACAUCUACGAAUUCGUACCAUAGAGAGGCUUAUCCGCUCUACCGAGAUCGGAAGAGCACACGU", 7.91),
]
